Cited source for all entries: the MegaScale stability set (Tsuboyama et al. 2023)

B1: r16_88_TrROS_Hall (parent)
chain: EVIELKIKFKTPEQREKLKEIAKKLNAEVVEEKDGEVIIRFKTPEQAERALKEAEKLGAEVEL

Variants of: B1
TEST: folding stability dG (cDNA display proteolysis); higher = more stable
EXPERIMENTAL_CONDITIONS: PBS, room temperature
RECORDED_ENDPOINT: folding stability dG (kcal/mol)
Give the value in kcal/mol but do not write kcal/mol after it.

Please report the measured folding stability dG for I38A
4.26

Please report the measured folding stability dG for K19I
4.31

Please report the measured folding stability dG for A59S
4.26

Please report the measured folding stability dG for L63D
4.33

Please report the measured folding stability dG for R15C
4.31

Please report the measured folding stability dG for T43K
4.36

Please report the measured folding stability dG for I3E
4.3

Please report the measured folding stability dG for R15I
4.37

Please report the measured folding stability dG for F9P
4.02

Please report the measured folding stability dG for E16N
4.5

Please report the measured folding stability dG for E1L
4.31

Please report the measured folding stability dG for A47N
3.68

Please report the measured folding stability dG for E28T
4.4

Please report the measured folding stability dG for V37H
4.38

Please report the measured folding stability dG for T11E
4.14

Please report the measured folding stability dG for V37D
3.02

Please report the measured folding stability dG for Q14D
4.16

Please report the measured folding stability dG for I7T
4.09

Please report the measured folding stability dG for R40F
4.66

Please report the measured folding stability dG for K56H
4.33

Please report the measured folding stability dG for D34G
4.46

Please report the measured folding stability dG for E55C
4.43

Please report the measured folding stability dG for K10F
4.18

Please report the measured folding stability dG for G35W
4.46

Please report the measured folding stability dG for L51G
4.45

Please report the measured folding stability dG for G35A
4.5

Please report the measured folding stability dG for E13A
4.33

Please report the measured folding stability dG for E55A
4.43

Please report the measured folding stability dG for V29D
4.14

Please report the measured folding stability dG for K10Y
4.5

Please report the measured folding stability dG for A50F
4.38

Please report the measured folding stability dG for N26Q
4.45

Please report the measured folding stability dG for V2A
4.3

Please report the measured folding stability dG for E1R
3.94

Please report the measured folding stability dG for V37F
4.55

Please report the measured folding stability dG for P12T
4.57

Please report the measured folding stability dG for D34W
4.32

Please report the measured folding stability dG for L57I
4.43

Please report the measured folding stability dG for K17N
4.42

Please report the measured folding stability dG for E20R
4.59

Please report the measured folding stability dG for K42E
3.81

Please report the measured folding stability dG for V2C
4.51

Please report the measured folding stability dG for A50V
4.41

Please report the measured folding stability dG for I3A
4.54

Please report the measured folding stability dG for T43E
3.61

Please report the measured folding stability dG for I3T
4.67

Please report the measured folding stability dG for K17S
4.45

Please report the measured folding stability dG for E16P
4.03

Please report the measured folding stability dG for R15Q
4.22

Please report the measured folding stability dG for E1G
4.57

Please report the measured folding stability dG for Q14W
4.3

Please report the measured folding stability dG for E60C
4.27

Please report the measured folding stability dG for T43G
4.08

Please report the measured folding stability dG for K19L
4.5

Please report the measured folding stability dG for L63A
4.17

Please report the measured folding stability dG for I39T
3.95

Please report the measured folding stability dG for E32L
4.31

Please report the measured folding stability dG for V2Q
4.45

Please report the measured folding stability dG for E1C
4.27

Please report the measured folding stability dG for L57R
3.57

Please report the measured folding stability dG for K8P
4.21

Please report the measured folding stability dG for E28M
4.17

Please report the measured folding stability dG for Q14F
4.25

Please report the measured folding stability dG for E45D
4.22

Please report the measured folding stability dG for T43D
3.85

Please report the measured folding stability dG for V61P
4.14

Please report the measured folding stability dG for A22F
4.65

Please report the measured folding stability dG for T43A
4.45

Please report the measured folding stability dG for T11C
4.58

Please report the measured folding stability dG for L18M
4.28

Please report the measured folding stability dG for K33S
4.17

Please report the measured folding stability dG for V30H
4.35

Please report the measured folding stability dG for E28I
4.45

Please report the measured folding stability dG for K56T
4.48

Please report the measured folding stability dG for E1K
4

Please report the measured folding stability dG for L57K
3.5

Please report the measured folding stability dG for P44E
4.1

Please report the measured folding stability dG for E4N
4.35

Please report the measured folding stability dG for G35M
4.26

Please report the measured folding stability dG for V30Q
4.3

Please report the measured folding stability dG for L57A
4.15

Please report the measured folding stability dG for L51Y
4.08

Please report the measured folding stability dG for A59T
4.27

Please report the measured folding stability dG for K56W
4.26

Please report the measured folding stability dG for L5M
4.49

Please report the measured folding stability dG for K56A
4.49

Please report the measured folding stability dG for E31N
4.49

Please report the measured folding stability dG for L25W
4.85

Please report the measured folding stability dG for D34P
4.26

Please report the measured folding stability dG for E62C
4.59

Please report the measured folding stability dG for L57D
4.08
